molecular target: UniProtKB P30291; test: ELISA based assay: WEE1 phosphorylation of biotinylated H2B peptide spanning Tyr37; type: biochemical; design: A full length human WEE1 kinase that was enzymatically active was purified from insect cell; details: Table 1; several values in a cell are repeat determinations
Sequence (P30291 whole entry): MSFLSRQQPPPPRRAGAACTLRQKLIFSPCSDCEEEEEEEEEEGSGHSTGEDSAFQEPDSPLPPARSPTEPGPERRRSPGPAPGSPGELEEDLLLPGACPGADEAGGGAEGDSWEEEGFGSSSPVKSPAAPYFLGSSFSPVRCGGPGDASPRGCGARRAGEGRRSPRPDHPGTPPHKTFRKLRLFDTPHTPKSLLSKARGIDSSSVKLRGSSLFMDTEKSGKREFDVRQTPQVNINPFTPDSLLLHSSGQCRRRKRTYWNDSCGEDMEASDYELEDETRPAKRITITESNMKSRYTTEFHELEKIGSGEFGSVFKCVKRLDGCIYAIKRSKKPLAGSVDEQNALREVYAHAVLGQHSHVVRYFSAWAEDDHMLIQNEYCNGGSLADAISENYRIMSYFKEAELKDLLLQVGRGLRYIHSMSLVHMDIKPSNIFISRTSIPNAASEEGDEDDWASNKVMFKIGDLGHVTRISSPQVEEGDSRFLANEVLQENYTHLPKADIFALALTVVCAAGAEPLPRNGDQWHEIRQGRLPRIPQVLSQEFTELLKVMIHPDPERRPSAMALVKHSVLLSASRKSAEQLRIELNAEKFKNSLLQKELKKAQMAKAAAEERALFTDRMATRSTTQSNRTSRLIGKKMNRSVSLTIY
List of ELISA Inhibition (%) values.

Some compounds with recorded ELISA Inhibition (%):
Param readout= ELISA Inhibition (%); system= UniProtKB P30291; entry= `Cc1cc(C(=O)Nc2ccc(N)c(F)c2)c(C)cc1C(=O)Nc1ccc(N)c(F)c1.Cl` ; returns value.
41%

Cool, now `Cc1cc(C(=O)Nc2ccc(NC(=O)OC(C)(C)C)c(Cl)c2)c(C)cc1C(=O)Nc1ccc(NC(=O)OC(C)(C)C)c(Cl)c1`
24%

Cool, now `CC(C)(C)OC(=O)Nc1ccc(CNC(=O)c2ccc(C(=O)NCc3ccc(NC(=O)OC(C)(C)C)cc3)nc2)cc1`
12%

Next:
Param readout= ELISA Inhibition (%); system= UniProtKB P30291; entry= `Cl.Nc1ccc(NC(=O)c2ccc(C(=O)Nc3ccc(N)c(Cl)c3)cc2)cc1Cl` ; returns value.
−52%

Cool, now `CC(C)(C)OC(=O)Nc1ccc(NC(=O)c2ccc(C(=O)Nc3ccc(NC(=O)OC(C)(C)C)c(Cl)c3)o2)cc1Cl`
17%

Cool, now `Cc1cc(C(=O)Nc2ccc(NC(=O)OC(C)(C)C)c(F)c2)c(C)cc1C(=O)Nc1ccc(NC(=O)OC(C)(C)C)c(F)c1`
25%

Cool, now `CC(C)(C)OC(=O)Nc1ccc(NC(=O)[C@H]2CC[C@H](C(=O)Nc3ccc(NC(=O)OC(C)(C)C)c(F)c3)CC2)cc1F`
20%

Cool, now `Cl.Nc1ccc(CNC(=O)c2ccc(C(=O)NCc3ccc(N)cc3)o2)cc1`
−16%

Cool, now `Cc1cc(C(=O)NCc2ccc(N)cc2)c(C)cc1C(=O)NCc1ccc(N)cc1.Cl`
12%

Source of measurements: patent US11987568B2
